Reference source: patent US20170037008A1

- Measurement description: Biological distribution in bodies of normal mice
- Type: in vivo, mice (ICR)
- Test conditions: caudal vein injection, 30 min
Below, each entry is listed with its recorded Brain.
Respond numerically; units are % ID/g and should not be typed.

Reference set (4 entries):
Compound | Observed result
COc1ccc(COc2ccc([125I])cc2)cc1 [[^125I]24] | 0.73
COc1ccc(COc2ccc(OCC[18F])cc2)cc1 [[^18F] 53a] | 1.44
FCCOc1ccc(OCc2ccc([125I])cc2)cc1 [[^125I]31a] | 1.05
FCCOc1ccc(COc2ccc([125I])cc2)cc1 [[^125I]35a] | 0.81

Please examine the following record next.
Challenge: Dear colleague, please send me the reported Brain for CN(C)c1ccc(-c2cn3cc([125I])ccc3n2)cc1 [[^125I]IMPY, reference compound] when you can.
Response given: 0.67
